biological target: Adenosine receptor A1 (Homo sapiens) (UniProt P30542); assay: Displacement of [3H]DPCPX from human adenosine receptor A1 expressed in HEK293 cell membranes at 0.1 uM after 90 mins by liquid scintillation counting method relative to control
Sequence (P30542 whole entry): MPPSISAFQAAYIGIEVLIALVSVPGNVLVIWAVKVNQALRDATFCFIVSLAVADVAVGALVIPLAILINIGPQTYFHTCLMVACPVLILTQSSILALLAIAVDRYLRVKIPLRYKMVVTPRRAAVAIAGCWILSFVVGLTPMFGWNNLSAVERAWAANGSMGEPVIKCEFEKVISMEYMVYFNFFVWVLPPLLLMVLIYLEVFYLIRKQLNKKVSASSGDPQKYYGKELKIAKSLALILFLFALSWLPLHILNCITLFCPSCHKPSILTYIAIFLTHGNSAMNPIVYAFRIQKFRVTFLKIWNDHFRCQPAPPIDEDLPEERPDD
PROPERTY NAME: inhibition (%)
Respond with the bare value in %.

Consider the worked cases shown below.
- MOLECULE: "CCCn1c(=O)c2[nH]c(-c3cnn(CCC4CC(=O)N(c5cccc(C(F)(F)F)c5)C4)c3)nc2n(CCC)c1=O (centres undefined)"
  UNITS TEXT: "%"
  inhibition: 40
- MOLECULE: "CCCn1c(=O)c2[nH]c(-c3cnn(CC(=O)N4CCN(c5ccc(F)c(Cl)c5)CC4)c3)nc2n(CCC)c1=O"
  UNITS TEXT: "%"
  inhibition: 56

[Q] State the recorded inhibition for this entry: CCCn1c(=O)c2[nH]c(-c3cnn(CC4CCN(c5ccc(OC(F)(F)F)cc5)C4)c3)nc2n(CCC)c1=O (centres undefined)
[A] 23

[Q] State the recorded inhibition for this entry: CCCn1c(=O)c2[nH]c(-c3cnn(CC(O)C4CC(=O)N(c5cccc(C(F)(F)F)c5)C4)c3)nc2n(CCC)c1=O (centres undefined)
[A] 12

Every entry's value here was drawn from ChEMBL document CHEMBL3994582.
